# TARGET: human ether-à-go-go-related gene (hERG) potassium channel (human, UniProt Q12809)
# Sequence (Q12809 whole entry, looked up): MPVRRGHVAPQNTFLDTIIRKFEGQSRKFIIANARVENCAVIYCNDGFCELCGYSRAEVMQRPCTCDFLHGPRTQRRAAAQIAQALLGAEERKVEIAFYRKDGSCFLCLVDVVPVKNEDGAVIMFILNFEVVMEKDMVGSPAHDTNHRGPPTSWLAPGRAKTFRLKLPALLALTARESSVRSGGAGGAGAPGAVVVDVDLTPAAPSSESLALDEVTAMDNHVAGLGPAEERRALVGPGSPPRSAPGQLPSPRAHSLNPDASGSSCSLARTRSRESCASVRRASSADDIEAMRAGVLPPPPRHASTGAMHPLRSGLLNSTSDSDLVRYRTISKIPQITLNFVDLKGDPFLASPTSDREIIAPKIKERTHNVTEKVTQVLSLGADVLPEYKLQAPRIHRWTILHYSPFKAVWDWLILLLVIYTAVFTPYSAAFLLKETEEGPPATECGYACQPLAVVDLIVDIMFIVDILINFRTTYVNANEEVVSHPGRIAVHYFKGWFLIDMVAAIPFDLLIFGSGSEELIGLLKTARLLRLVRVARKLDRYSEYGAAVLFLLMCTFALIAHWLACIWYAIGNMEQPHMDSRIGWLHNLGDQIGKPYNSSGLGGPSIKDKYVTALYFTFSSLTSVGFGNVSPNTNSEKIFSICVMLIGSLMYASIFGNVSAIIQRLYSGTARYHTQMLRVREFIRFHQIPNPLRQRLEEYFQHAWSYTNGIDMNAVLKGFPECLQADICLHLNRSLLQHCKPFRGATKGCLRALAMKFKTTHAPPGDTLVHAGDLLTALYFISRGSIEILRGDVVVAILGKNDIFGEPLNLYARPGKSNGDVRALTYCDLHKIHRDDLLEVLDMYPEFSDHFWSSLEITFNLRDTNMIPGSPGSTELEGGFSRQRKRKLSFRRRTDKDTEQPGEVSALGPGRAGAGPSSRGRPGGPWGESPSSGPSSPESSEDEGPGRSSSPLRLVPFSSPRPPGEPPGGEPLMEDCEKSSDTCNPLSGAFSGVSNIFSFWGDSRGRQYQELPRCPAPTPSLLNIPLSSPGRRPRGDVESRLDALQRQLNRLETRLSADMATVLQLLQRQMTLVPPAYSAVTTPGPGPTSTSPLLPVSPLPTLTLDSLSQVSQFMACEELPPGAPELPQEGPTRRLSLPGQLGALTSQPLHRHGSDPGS
# PROTOCOL DETAILS: primary screen, population patch clamp on CHO cells stably expressing hERG; higher = less effect of the substance
Screen size: about 310,000 compounds; about 2,200 (0.71%) showed an effect of 50% or more. The effect is printed as a negative number. The sample holds strong results, similar compounds and a random draw of the others, so the mix is not that of the screen.
hERG current change (%, negative = inhibition) at 1uM listing for selected compounds.
TEST READOUT: hERG current change (%, negative = inhibition) at 1uM (%)

COMPOUND: CC(=O)NCCC(=O)Nc1sc2c(c1-c1nc3ccccc3[nH]1)CCCC2
TARGET: human ether-à-go-go-related gene (hERG) potassium channel (human, UniProt Q12809)
TEST RESULT: 7.25
//
COMPOUND: CCOC(=O)CCNC(=O)N1CCCC(CNS(=O)(=O)Cc2ccccc2)C1 (centres unmarked)
TARGET: human ether-à-go-go-related gene (hERG) potassium channel (human, UniProt Q12809)
TEST RESULT: 8.76
//
COMPOUND: CCOC(=O)CSc1nnc(Cn2c(=O)sc3ccccc32)n1C
TARGET: human ether-à-go-go-related gene (hERG) potassium channel (human, UniProt Q12809)
TEST RESULT: -3.18
//
COMPOUND: CCOC(=O)c1cccc(NC(=O)CCNS(=O)(=O)c2cc(Br)cnc2N)c1
TARGET: human ether-à-go-go-related gene (hERG) potassium channel (human, UniProt Q12809)
TEST RESULT: 14.4
//
COMPOUND: Cc1ccc(CS(=O)(=O)CCC(=O)NCCC(C)C)cc1
TARGET: human ether-à-go-go-related gene (hERG) potassium channel (human, UniProt Q12809)
TEST RESULT: 6.06
//
COMPOUND: Cc1ccccc1NC(=O)CCCN1C(=O)C2CC=CCC2C1=O (centres unmarked)
TARGET: human ether-à-go-go-related gene (hERG) potassium channel (human, UniProt Q12809)
TEST RESULT: 14.5
//
COMPOUND: O=C(Oc1ccc2ccc(=O)oc2c1)c1ccccc1
TARGET: human ether-à-go-go-related gene (hERG) potassium channel (human, UniProt Q12809)
TEST RESULT: 9.28
//
COMPOUND: Cc1ccc(CSCc2ccc(C(=O)NCCCN3CCOCC3)o2)cc1
TARGET: human ether-à-go-go-related gene (hERG) potassium channel (human, UniProt Q12809)
TEST RESULT: -21.2
//
COMPOUND: O=C(NCc1ccccc1)c1cnsn1
TARGET: human ether-à-go-go-related gene (hERG) potassium channel (human, UniProt Q12809)
TEST RESULT: 7.4
//
COMPOUND: CC1CCC(NC(=O)Cn2cnc3sccc3c2=O)CC1 (centres unmarked)
TARGET: human ether-à-go-go-related gene (hERG) potassium channel (human, UniProt Q12809)
TEST RESULT: 3.74
//
COMPOUND: O=C(Oc1ccc2ccccc2c1)c1ccco1
TARGET: human ether-à-go-go-related gene (hERG) potassium channel (human, UniProt Q12809)
TEST RESULT: -0.657
